target-desc: Matrix-associated proTGFb1 (hLTBP1, hLTBP3)
protocol-summary: BLI (OCTET), average over matrix-associated complexes
Assay type: binding, human
condition-parameters: average KD of (B) and (C), read-out: (D) ECM AVRG
measurement-name: pKd
Answers are plain numbers, as −log10 of the molar value.

(Q) Data request, read-out pKd, for Ab25: proTGFβ1 antibody; VH SEQ ID NO: 133, VL SEQ ID NO: 15 (antibody, V domains shown) VH: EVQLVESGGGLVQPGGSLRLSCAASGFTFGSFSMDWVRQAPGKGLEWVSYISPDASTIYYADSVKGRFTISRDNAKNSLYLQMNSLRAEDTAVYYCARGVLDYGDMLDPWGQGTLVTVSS VL: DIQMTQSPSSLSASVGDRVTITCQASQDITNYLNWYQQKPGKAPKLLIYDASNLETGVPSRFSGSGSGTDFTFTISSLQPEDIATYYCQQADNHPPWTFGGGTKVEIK
(A) 9.73

Values compiled from patent US12252531B2.
